Recorded pIC50 for compounds tested on human DGAT2 (hDGAT2) (Homo sapiens), drawn from a number of studies.
Sequence (Q96PD7 whole entry): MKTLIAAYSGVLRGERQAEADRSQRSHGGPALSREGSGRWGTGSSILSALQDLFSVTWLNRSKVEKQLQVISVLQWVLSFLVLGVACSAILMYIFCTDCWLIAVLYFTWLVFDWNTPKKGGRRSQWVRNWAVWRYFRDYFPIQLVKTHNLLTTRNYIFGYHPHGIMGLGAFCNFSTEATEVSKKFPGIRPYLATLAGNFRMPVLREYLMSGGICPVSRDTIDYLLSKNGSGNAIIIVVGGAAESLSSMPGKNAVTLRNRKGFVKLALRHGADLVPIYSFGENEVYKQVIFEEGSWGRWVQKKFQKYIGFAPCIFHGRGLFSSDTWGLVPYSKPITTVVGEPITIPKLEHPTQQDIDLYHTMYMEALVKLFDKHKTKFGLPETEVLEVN
Hey, just a heads up that pIC50 is the negative log base 10 of the concentration in molar.

The cases that follow already have their pIC50 on record.
{"columns": ["compound", "subject_of_test", "measured_attribute", "readout_value"],
 "data": [
  ["COc1cccc(-c2ccc(CNC(=O)[C@@H]3C[C@H]3c3ccccc3)c3c2CCN(C(=O)Nc2cc(C)no2)C3)c1 (relative stereo)", "human DGAT2 (hDGAT2) (Homo sapiens)", "pIC50", 5.78],
  ["O=C(NCc1cnsn1)c1ccc2c(-c3ccccc3Cl)nn(-c3ccc(F)cc3)c2c1", "human DGAT2 (hDGAT2) (Homo sapiens)", "pIC50", 6.35]
]}

Input: Requested read-out: pIC50. Entry: Cc1cc(C)n(-c2cccc(-c3cn(-c4ccc(F)cc4)c4cc(C(=O)NC5CCS(=O)(=O)C5)ccc34)c2)n1 (racemic)
Output: 6.03

Input: Also need "CC1(NC(=O)c2cnc3c(c2)c(C2(O)CCC2)nn3-c2cccc(OC(F)F)c2)CS(=O)(=O)C1" , thanks.
Output: 7.82

Input: Further, for "CC1(NC(=O)c2nc3ccc(Oc4ncccc4OCC(F)(F)F)cn3c2Cl)CCS(=O)(=O)CC1" ?
Output: 8.48

Input: Can you handle CC(C)(C)NC(=O)N1CCc2c(-c3cccc(-c4nnco4)c3)ccc(CNC(=O)[C@@H]3C[C@H]3c3ccccc3)c2C1 (relative stereo) next?
Output: 7.98

Input: # repeat for "CC1(NC(=O)c2nn3ccc(Oc4ncc(F)cc4OCC(F)(F)F)cc3c2F)CCS(=O)(=O)CC1"
Output: 8.14

* * *

Dear all, I have gathered published IC50 values for UniProt Q96PD7; the list follows.
Only the number, expressed in nM, is required.

Consider the following illustrative entries.
{"columns": ["molecule", "subject_of_test", "unit_name", "IC50"],
 "data": [
  ["Cc1cc2nc(C(=O)NC3(C)CCS(=O)(=O)CC3)nn2c(C)c1Oc1nccnc1OCC(F)(F)F", "UniProt Q96PD7", "nM", 91],
  ["Cc1nonc1CNC(=O)c1ccc(-c2cccc(C(F)(F)F)c2)c2c1CN(C(=O)NC(C)(C)C)CC2", "UniProt Q96PD7", "nM", 244]
]}

Input: Look up IC50: COc1cccc(-c2ccc(CNC(=O)[C@@H]3C[C@H]3c3ccccc3)c3c2CCN(C(=O)C(C)(C)O)C3)c1 (relative stereo)
Output: 831

Input: Another molecule to look at: "Cc1cnc(Oc2ccc3nc(C(=O)NC4(C)CCS(=O)(=O)CC4)c(C)n3c2)c(OCC(F)(F)F)n1"
Output: 3

* * *

Please find below IC50 measurements for human DGAT2 (hDGAT2) (Homo sapiens), combined from several publications.
Only the number, expressed in nM, is required.

{"columns": ["compound", "readout_value"],
 "data": [
  ["COc1cc(-c2nn(-c3ccc(F)cc3)c3cc(C(=O)NC4CCS(=O)(=O)C4)ccc23)c(Cl)cn1 (single isomer, unassigned)", 5.4]
]}

Input: Look up IC50 for this compound: "Cc1cc2nc(C(=O)NC3(C)CCS(=O)(=O)CC3)cn2cc1Oc1ncc(Cl)cc1OCC1(F)COC1"
Output: 74

Input: Here is the next compound: "O=C(NCc1cn2cccnc2n1)c1ccc2c(-c3ccccc3Cl)nn(-c3ccc(F)cc3)c2c1"
Output: 415

Input: Check "CC(C)(C)NC(=O)N1CCc2c(-c3cccc(C(F)(F)F)c3)ccc(C(=O)NCCc3ccccc3C(F)(F)F)c2C1" too.
Output: 905

Input: And then CC1(NC(=O)c2ccc3c(-c4ccccc4Cl)nn(-c4ccccn4)c3c2)CCS(=O)(=O)C1 (single isomer, unassigned) , what is it?
Output: 71

Input: Can you check "N[C@@H]1CCC[C@@H]1NC(=O)c1cnc2c(-c3cccc(OC(F)F)c3)cn(-c3ncc(F)cn3)c2c1" next?
Output: 173

Input: // next record COC(=O)c1ccc(-n2nc(-c3ccccc3Cl)c3ccc(C(=O)NC4(C)CCS(=O)(=O)C4)cc32)cc1 (racemic)
Output: 644

Input: Entry to check: "Cc1cc2nc(C(=O)N[C@H]3CCCC(F)(F)[C@@H]3O)nn2cc1Oc1ncc(Cl)cc1OCC(F)(F)F"
Output: 91

Input: Cool, now "CCc1c(C(=O)NC2(C)CCS(=O)(=O)CC2)nc2ccc(Oc3ncccc3OCC(F)(F)F)cn12"
Output: 44

Input: What about CN(C)C(=O)c1cccc(-c2nn(-c3ccc(F)cc3)c3cc(C(=O)NC4(C)CCS(=O)(=O)C4)ccc23)c1 (racemic) ?
Output: 855

Input: Can you check "O=C(NC1(CO)CCC1)c1ccc2c(-c3ccccc3Cl)nn(-c3ccc(F)cc3)c2c1" next?
Output: 15
